# assay.overview: NCI Yeast Anticancer Drug Screen. Data for the bub3 strain (AID 167)
# condition.info: S. cerevisiae bub3 mutant strain, at 100.0 µM
# Description: Growth inhibition of yeast strains with defined genetic alterations is measured as a screen for potential anti-cancer activity. Selected strains with alterations in DNA damage repair or cell cycle control were exposed to compounds and growth inhibition was measured relative to vehicle treated controls. The strain used in this assay is bub3
The panel holds about 79,000 compounds, 15% with a hit somewhere; the sample as a whole holds those more often. Active and inactive are the calls of the source. Rule as the data show it: active = growth inhibition above about 70%; inactive = the rest.
Labels: class 1 (active), class 0 (inactive)

INSERT INTO measurements (compound, category) VALUES
  ('CS(=O)(=O)OCCN(CCOS(C)(=O)=O)c1ccc(C=Nc2ccc(-c3csc(COc4ccccc4)n3)cc2)cc1', 'class 1'),
  ('O=C(O)c1ccccc1/C=N/N=C1c2ccccc2-c2ccccc21', 'class 0'),
  ('COc1cccc2c1C(=O)c1c(O)c3c(c(O)c1C2=O)CC(O)(C(O)CO)CC3OC1CC(N2CCOCC2)C(O)C(C)O1 (stereo not given)', 'class 1'),
  ('C=C1C(=O)OC2CC1C(OC(C)=O)C/C(C)=C/CC/C(C)=C\CCC2(C)O (stereo not given)', 'class 1'),
  ('O=[N+]([O-])c1cc(Cl)cnc1Br', 'class 0'),
  ('Oc1ccc2ccccc2c1CCc1c(O)ccc2ccccc12', 'class 1'),
  ('O=C(/C=C(/c1ccccc1)N1CCCCC1)c1ccccc1', 'class 1'),
  ('Oc1cccc2cc(Cl)cnc12', 'class 1'),
  ('COC(=O)Nc1cn2ccc(C(Cl)=C(Cl)Cl)cc2n1', 'class 0'),
  ('NC(=S)NC(=S)Nc1ccccc1', 'class 0'),
  ('Cc1cc(N(CCOS(C)(=O)=O)CCOS(C)(=O)=O)ccc1C=Nc1ccc(-c2csc(-c3ccccc3)n2)c(Cl)c1', 'class 1'),
  ('CCC(C)(C)c1ccc(Oc2cccc(C(=O)O)c2)cc1', 'class 1'),
  ('Cc1cccc[n+]1C1CCc2c(ccc3ccccc23)C1=O (stereo not given)', 'class 1'),
  ('Cc1ccc(Cl)cc1NC(=O)OCCN(C)C(=O)Nc1cc(Cl)ccc1C', 'class 0'),
  ('C[CH2][Sn]([CH2]C)([O]C(=O)C(N)Cc1ccccc1)[O]C(=O)C(N)Cc1ccccc1 (stereo not given)', 'class 0'),
  ('O=Cc1ccc2c(c1)C(=O)c1ccccc1C2=O', 'class 0'),
  ('COc1ccc(C(=O)C(CN(C)C)CN(C)C)cc1', 'class 1'),
  ('CCOC(=O)c1ccc(NC(=O)O/N=C(/Cl)C(C)C)cc1', 'class 1'),
  ('CC[n+]1oc(C(=O)c2ccc(Cl)cc2)c(-c2ccccc2)c1-c1ccccc1.[Cl][Fe]([Cl])([Cl])[Cl]', 'class 0'),
  ('Cc1nc(-c2cc3cc([N+](=O)[O-])ccc3oc2=O)cs1', 'class 1');
